This listing pairs compounds with measured MIC.
# TESTED_ON: Multidrug efflux pump subunit AcrB (Escherichia coli (strain K12))
# EXPERIMENT: Inhibition of AcrB in multidrug-resistant Escherichia coli BW25113 assessed as potentiation of chloramphenicol-induced antibacterial activity by measuring chloramphenicol MIC at 128 ug/ml by checkerboard titration method (reference value: 8 ug/ml)
# CONDITION_NOTES: dose 128.0 µg/ml
MEASURED_METRIC: MIC (µg/mL)

entry_smiles=Cc1ccccc1COc1cccc2c3c(c(-c4nnco4)cc12)CCC(C)(C)O3 readout_unit=µg/mL observed_value=8
entry_smiles=COc1cccc(COc2cccc3c4c(c(C(=O)N5CCOCC5)cc23)CCC(C)(C)O4)c1 readout_unit=µg/mL observed_value=2
entry_smiles=COc1cccc(COc2cccc3c4c(c(C(=O)O)cc23)CCC(C)(C)O4)c1 readout_unit=µg/mL observed_value=4
entry_smiles=CC1(C)CCc2c(C(=O)N3CCOCC3)cc3c(OCc4ccccc4)cccc3c2O1 readout_unit=µg/mL observed_value=4
entry_smiles=CNC(=O)c1ccc(COc2cccc3c4c(c(Cn5cnnn5)cc23)CCC(C)(C)O4)cc1 readout_unit=µg/mL observed_value=4
entry_smiles=CC1(C)CCc2c(C(=O)N3CCOCC3)cc3c(OCc4ccc(C(F)(F)F)cc4)cccc3c2O1 readout_unit=µg/mL observed_value=4
entry_smiles=COc1cccc(COc2cccc3c4c(c(-c5nnco5)cc23)CCC(C)(C)O4)c1 readout_unit=µg/mL observed_value=8
entry_smiles=CC1(C)CCc2c(C(=O)O)cc3c(OCc4ccccc4)cccc3c2O1 readout_unit=µg/mL observed_value=1
entry_smiles=CC1(C)CCc2c(Cn3cnnn3)cc3c(OCc4ccc(OC(F)(F)F)cc4)cccc3c2O1 readout_unit=µg/mL observed_value=4
